B1: Zinc finger homeobox protein 3, residues 2643 to 2698; numbered along this chain, Q15911 (parent)
chain: RLRTTITPEQLEILYQKYLLDSNPTRKMLDHIAHEVGLKKRVVQVWFQNTRARERK

Variants of: B1
test.method.notes: abundance fitness (aPCA) (normalised: wild type 0, dead -1); higher = more abundant; growth selection in yeast, the domain comes from the species named
experimental.conditions: Homo sapiens
Provide the reported abundance fitness of each item.
The response must contain the number and no unit.

Ask: Report measured abundance fitness; entry is N49C
Reply: -0.496

Ask: Give abundance fitness for the following variant: I32E
Reply: -0.9

Ask: Query abundance fitness for P8Q
Reply: -0.401

Ask: Tell us which abundance fitness value is on record for G37K
Reply: -0.007

Ask: Tell me its abundance fitness given V45Q as the entry.
Reply: -0.016

Ask: Output abundance fitness of R55W
Reply: 0.017

Ask: Supply reported abundance fitness belonging to this variant: L19K
Reply: -0.022

Ask: Consider the variant E12M and give its recorded abundance fitness.
Reply: 0.335

Ask: Specify measured abundance fitness for V42W .
Reply: -0.048

Ask: Respond only with abundance fitness recorded for L19A
Reply: -0.075

Ask: State its abundance fitness for this variant: Y18T
Reply: -1.03

Ask: Note abundance fitness for the variant shown: R51I
Reply: -0.286

Ask: Answer with reported abundance fitness of I32L
Reply: -0.123

Ask: Provide one value: measured abundance fitness of G37D
Reply: -0.384

Ask: Please look at this variant and report its abundance fitness: K39C
Reply: 0.184

Ask: Answer with the recorded abundance fitness of K17P only.
Reply: -1.05

Ask: Give reported abundance fitness value for P24M
Reply: -0.777

Ask: Specify abundance fitness for N23S and stop.
Reply: -0.113

Ask: Give abundance fitness for E35C
Reply: -0.351

Ask: Please supply the value of reported abundance fitness for the item N23I
Reply: -0.414

Ask: Name the recorded abundance fitness of the variant listed here: R53L
Reply: -0.006

Ask: Report abundance fitness, nothing else, for this variant: K40V
Reply: 0.161

Ask: State, in one line, measured abundance fitness of R3S
Reply: 0.43

Ask: Let me know recorded abundance fitness for R41H , thanks.
Reply: 0.031

Ask: Return reported abundance fitness. Input variant: R41G
Reply: 0.353

Ask: Provide only the value of recorded abundance fitness for Q48C
Reply: -0.189

Ask: Respond only with abundance fitness recorded for E35L
Reply: -0.205

Ask: Please report abundance fitness for the following variant: V45T
Reply: -0.24

Ask: Specify abundance fitness for Q48H and stop.
Reply: -0.108

Ask: Recall and state the measured abundance fitness for P8R .
Reply: 0.196

Ask: Using the record for D21I , state its measured abundance fitness.
Reply: -0.533

Ask: State its abundance fitness for this variant: Q10I
Reply: -0.27

Ask: Report measured abundance fitness; entry is L11M
Reply: -0.032

Ask: // fetch abundance fitness given entry I13F
Reply: 0.119

Ask: Check the records and state abundance fitness for S22Y
Reply: -0.624

Ask: For the variant T7V , report abundance fitness.
Reply: -0.688

Ask: Annotate the variant I13M with its measured abundance fitness.
Reply: -0.253

Ask: Supply recorded abundance fitness for L29I here.
Reply: 0.167

Ask: Name the recorded abundance fitness of the item W46G in your answer.
Reply: -0.792

Ask: Supply reported abundance fitness belonging to this variant: P24E
Reply: -0.78

Ask: Give abundance fitness for K40R
Reply: -0.064

Ask: Please indicate abundance fitness recorded for T4N
Reply: -0.042

Ask: Look up abundance fitness of D21R and report it.
Reply: -0.803

Ask: Please list abundance fitness recorded for the variant F47H
Reply: -1.09

Ask: Item K27A : provide abundance fitness
Reply: 0.018

Ask: For the variant L38C , report abundance fitness.
Reply: -0.329
